- Test system: HCT-116
- Assay Comment: Growth inhibition of human HCT116 cells after 2 days by MTT assay
- Assay type: functional
- Assay Setup: HCT-116, 48 h
Quick list: GI50 per entry.
# value in µM; strip the unit string

COc1cccc2c1C(=O)c1c(O)c3c(c(O)c1C2=O)C[C@@](O)(C(=O)CO)C[C@@H]3O[C@H]1C[C@H](N)[C@H](O)[C@H](C)O1 0.4

As a next step, examine the molecule that follows.
Notebook: COc1ccc(OC)c(-c2cn(-c3ccc(O)c(C(=O)NCCc4ccc(F)cc4)c3)nn2)c1 , GI50 read as 13.6

----------
- System: CCRF-CEM
- Assay Comment: Growth inhibition of human CCRF-CEM cells at 10 uM after 2 days by MTT assay
- Type: functional
- Assay Setup: 48 h
Quick list: inhibition at 10 µM per entry.
# value in %; strip the unit string

The following compounds have reported results that may help.
O=C(NCCc1ccc(F)cc1)c1cc(-n2cc(-c3cc(O)ccc3O)nn2)ccc1O 15
COc1ccccc1-c1cn(-c2ccc(O)c(C(=O)NCCc3ccc(F)cc3)c2)nn1 11
COC(=O)c1cc(-n2cc(-c3cc(OC)cc(OC)c3)nn2)ccc1O 3
O=C(OCCCc1ccccc1)c1cc(-n2cc(-c3cccc(O)c3)nn2)ccc1O 9
COc1ccccc1-c1cn(-c2ccc(O)c(C(=O)Nc3cccc(C(F)(F)F)c3)c2)nn1 65

Notebook: COC(=O)c1cc(-n2cc(-c3cccc(O)c3)nn2)ccc1O , inhibition at 10 µM read as 5

Notebook: O=C(Nc1cccc(C(F)(F)F)c1)c1cc(-n2cc(-c3cccc(O)c3)nn2)ccc1O , inhibition at 10 µM read as 13

Notebook: COc1cc(OC)cc(-c2cn(-c3ccc(O)c(C(=O)Nc4cccc(C(F)(F)F)c4)c3)nn2)c1 , inhibition at 10 µM read as 73

Notebook: COC(=O)c1cc(-n2cc(-c3cc(OC)ccc3OC)nn2)ccc1O , inhibition at 10 µM read as 3

Notebook: COc1ccc(OC)c(-c2cn(-c3ccc(O)c(C(=O)OCCCc4ccccc4)c3)nn2)c1 , inhibition at 10 µM read as 5

Notebook: COc1cc(OC)cc(-c2cn(-c3ccc(O)c(C(=O)NCCc4ccc(F)cc4)c3)nn2)c1 , inhibition at 10 µM read as 35

Notebook: O=C(NCCc1ccc(F)cc1)c1cc(-n2cc(-c3cccc(O)c3)nn2)ccc1O , inhibition at 10 µM read as 35

----------
- System: HCT-116
- Assay Comment: Growth inhibition of human HCT116 cells after 2 days by MTT assay
- Format: functional
- Assay Setup: HCT-116, 48 h
# strict inequality: GI50 < 10 µM yields yes (1), everything else yields no (0)

COc1ccccc1-c1cn(-c2ccc(O)c(C(=O)Nc3cccc(C(F)(F)F)c3)c2)nn1 yes (1)
COc1ccc(OC)c(-c2cn(-c3ccc(O)c(C(=O)Nc4cccc(C(F)(F)F)c4)c3)nn2)c1 no (0)
COc1cc(OC)cc(-c2cn(-c3ccc(O)c(C(=O)Nc4cccc(C(F)(F)F)c4)c3)nn2)c1 yes (1)
COc1cc(OC)cc(-c2cn(-c3ccc(O)c(C(=O)NCCc4ccc(F)cc4)c3)nn2)c1 no (0)
COc1ccc(-c2cn(-c3ccc(O)c(C(=O)NCCc4ccc(F)cc4)c3)nn2)cc1 no (0)

Consider O=C(OCCCc1ccccc1)c1cc(-n2cc(-c3cc(O)ccc3O)nn2)ccc1O . Does its GI50 lie strictly below 10 µM? no (0)
